This collection of values is drawn from the RNAGym collection of RNA variant scans (doi:10.7554/elife.80360).

Reported self-cleavage by item:
B1: HDV Ribozyme (parent)
chain: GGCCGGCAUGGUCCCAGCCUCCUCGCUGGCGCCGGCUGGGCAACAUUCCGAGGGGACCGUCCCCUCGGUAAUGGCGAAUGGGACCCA

variants of: B1; experiment: self-cleavage, relative activity (ratio to wild type); higher = more cleavage; co-transcriptional

variant-key | self-cleavage
G11A G54U | 0.391
G74C C84U | 0.196
G11A C61G | 0.332
G6U C66U | 0.645
U9A G31C | 0.287
C64A U69A | 1.06
G5C G35U | 0.0308
C32A C49G | 0.222
A16U G35C | 0.128
G31A U60A | 0.49
G6U A56U | 0.703
U60G A78G | 0.72
C75U G81C | 0.16
U46A G82C | 0
C15G G54U | 0.59
G59U G68U | 1
U9C G35U | 0.135
G10C G11A | 0.38
G10A G76A | 1.04
G6C C49U | 0.489
G5A U47A | 0.208
U72G C84U | 0.386
